Molecular target: hCA IX (Homo sapiens)
Construct: recombinant, made by the authors as in earlier publications
Test: stopped-flow CO2 hydration assay
RECORDED METRIC: Ki (nM)

- RECORD SMILES: "CN(C)c1ccc(CNCCNC(=O)Nc2ccc(S(N)(=O)=O)cc2)cc1"
  TGT: "hCA IX (Homo sapiens)"
  RECORDED METRIC: "Ki"
  UNITS: "nM"
  REPORTED MEASUREMENT: 343

a. NS(=O)(=O)c1cccc(NC(=O)NCCNCc2ccc(Cl)cc2)c1
b. NS(=O)(=O)c1ccc(NC(=O)NCCNCc2ccc(F)cc2)cc1
c. NS(=O)(=O)c1ccc(NC(=O)NCCNCc2ccc(Br)cc2O)cc1
d. COc1cc([N+](=O)[O-])ccc1CNCCNC(=O)Nc1ccc(S(N)(=O)=O)cc1
List from greatest to least Ki. Give the labels in the order requested.
a, d, c, b

A. NS(=O)(=O)c1cccc(NC(=O)NCCNCc2ccc(O)cc2)c1
B. CN(C)c1ccc(CNCCNC(=O)Nc2cccc(S(N)(=O)=O)c2)cc1
Consider entries A and B . Which has the numerically lower Ki? Record your answer as the label of the chosen record.
B
(B: 1200 nM, A: 3510 nM)

P. NS(=O)(=O)c1cccc(NC(=O)NCCNCc2ccc([N+](=O)[O-])cc2)c1
Q. NS(=O)(=O)c1ccc(NC(=O)NCCNCc2ccc(Cl)cc2)cc1
R. NS(=O)(=O)c1ccc(NC(=O)NCCNCc2ccc(O)cc2)cc1
Let's sort these by Ki, smallest first. Go ahead? Give the labels in the order requested.
Q, R, P
